Test: Lipophilicity, log P of the compound
Format: physicochemical
Conditions: octanol/water
What logP was measured for each of the following?
Please reply with the value in numeric form only.

Prompt line: Name the reported logP value associated with the compound CCOc1ccc2c(-c3nc4ccc(N5CCN(C)CC5)nn4c3-c3ccncc3)cccc2c1
Response line: 5

Prompt line: Give its logP value. Item: CN1CCN(c2ccc3nc(-c4cccc(-c5ccsc5)c4)c(-c4ccncc4)n3n2)CC1
Response line: 5

Prompt line: Item under review: CN1CCN(c2ccc3nc(-c4ccc(-c5ccccc5)s4)c(-c4ccncc4)n3n2)CC1 . Reported logP?
Response line: 5

Prompt line: Returns the measured logP for the input compound. Input: c1cc2c(c(-c3nc4cccnn4c3-c3ccncc3)c1)OCO2
Response line: 5

Prompt line: Could you tell me which logP is on file for CN1CCN(c2ccc3nc(-c4cccc(-c5cccs5)c4)c(-c4ccncc4)n3n2)CC1 ?
Response line: 5

----------
Test system: Toxoplasma gondii
Test: Antiparasitic activity against Toxoplasma gondii RH tachyzoite expressing beta-galactosidase assessed as inhibition of tachyzoite invasion into human foreskin fibroblast host cells after 96 hrs by colorimetric microtitre assay
Assay type: functional, organism-based
METRIC: log10 EC50 (log10 of the value in nM)
Give log10 of EC50, with EC50 taken in nM.

Prompt line: Form entry - test system: Toxoplasma gondii; read-out: log10 EC50; molecule: CN1CCN(c2ccc3nc(-c4cccc(-c5cccs5)c4)c(-c4ccncc4)n3n2)CC1
Response line: 3.15

Prompt line: Notebook entry, Toxoplasma gondii assay: log10 EC50 of CN1CCN(c2ccc3nc(-c4ccc5ncsc5c4)c(-c4ccncc4)n3n2)CC1 = ?
Response line: 3.22

Prompt line: Request body: readout log10 EC50, system Toxoplasma gondii, query CN1CCN(c2ccc3nc(-c4cccc5ccccc45)c(-c4ccncc4)n3n2)CC1 . Return the value.
Response line: 1.85

Prompt line: Return log10 EC50 measured with Toxoplasma gondii given this molecule: COc1cccc(-c2nc3ccc(N4CCN(C)CC4)nn3c2-c2ccncc2)c1
Response line: 1.70

Prompt line: Form field - read-out: log10 EC50; system: Toxoplasma gondii; submitted item: CN1CCN(c2ccc3nc(-c4cccc5c4OCCO5)c(-c4ccncc4)n3n2)CC1
Response line: 2.97

Prompt line: Fill in the recorded log10 EC50 for this molecule, with Toxoplasma gondii as test system: CN1CCN(c2ccc3nc(-c4ccc5c(c4)OCO5)c(-c4ccncc4)n3n2)CC1
Response line: 2.80

Prompt line: Item: CN1CCN(c2ccc3nc(-c4ccc(-c5ccccc5)s4)c(-c4ccncc4)n3n2)CC1 Test system: Toxoplasma gondii Read-out: log10 EC50 Value: ?
Response line: 3.49

----------
Experiment: Inhibition of wild type recombinant Toxoplasma gondii CDPK1 using syntide-2 substrate after 30 mins by Kinase-Glo luminescent assay
Could you please mark Satisfied for values of IC50 below 400 nM and Not satisfied for values at or above it?

Prompt line: Item CN1CCN(c2ccc3nc(-c4cccc5c4OCO5)c(-c4cccnc4)n3n2)CC1 : IC50 beneath 400 nM, strictly?
Response line: Not satisfied

Prompt line: Just wondering, is IC50 of CN1CCN(c2ccc3nc(-c4cccc(-c5ccccc5)c4)c(-c4ccncc4)n3n2)CC1 below 400 nM?
Response line: Not satisfied

Prompt line: Please state whether IC50 is below 400 nM for CN1CCN(c2ccc3nc(-c4cccc5c4OCO5)c(-c4ccncc4)n3n2)CC1
Response line: Satisfied

Prompt line: Please determine if CN1CCN(c2ccc3nc(-c4cccc(-c5ccsc5)c4)c(-c4ccncc4)n3n2)CC1 is below 400 nM in terms of IC50.
Response line: Not satisfied

Prompt line: Decide: IC50 of CN1CCN(c2ccc3nc(-c4cccc(C(=O)N5CCOCC5)c4)c(-c4ccncc4)n3n2)CC1 strictly below 400 nM?
Response line: Not satisfied

Prompt line: Record CN1CCN(c2ccc3nc(-c4cccc5c4OCO5)c(-c4ccncc4)n3c2)CC1 : is its IC50 strictly below 400 nM?
Response line: Not satisfied

Prompt line: Check if IC50 falls below 400 nM for CN1CCN(c2ccc3nc(-c4ccc(C(=O)N5CCOCC5)cc4)c(-c4ccncc4)n3n2)CC1 .
Response line: Not satisfied

Prompt line: Bench note: check whether CC1CN(c2ccc3nc(-c4cccc5c4OCO5)c(-c4ccncc4)n3n2)CC(C)N1C (stereo unspecified) shows IC50 below 400 nM
Response line: Not satisfied

Prompt line: In the record for CN1CCN(c2ccc3nc(-c4ccc(-c5ccccc5)s4)c(-c4ccncc4)n3n2)CC1 , is IC50 less than 400 nM?
Response line: Not satisfied

Prompt line: Does c1cc2c(c(-c3nc4cccnn4c3-c3ccncc3)c1)OCO2 have IC50 strictly under 400 nM?
Response line: Satisfied

Prompt line: # TODO verify IC50 < 400 nM strictly for this compound: CN1CCN(c2ccc3nc(-c4ccc(-c5ccccc5)cc4)c(-c4ccncc4)n3n2)CC1
Response line: Not satisfied

Prompt line: Just wondering, is IC50 of CN1CCN(c2ccc3nc(-c4cccc5c4OCO5)c(-c4ccccc4)n3n2)CC1 below 400 nM?
Response line: Not satisfied

Prompt line: A record lists CCOc1ccc2c(-c3nc4ccc(N5CCN(C)CC5)nn4c3-c3ccncc3)cccc2c1 . Is its IC50 below 400 nM?
Response line: Not satisfied

Prompt line: Just wondering, is IC50 of CN1CCN(c2ccc3nc(-c4cccc5ccccc45)c(-c4ccncc4)n3n2)CC1 below 400 nM?
Response line: Satisfied

Prompt line: Could you please tell me whether IC50 recorded for CN1CCN(c2ccc3nc(-c4ccc5c(c4)OCCO5)c(-c4ccncc4)n3n2)CC1 is less than 400 nM?
Response line: Satisfied

Prompt line: Does the reported IC50 of CN1CCN(c2ccc3nc(-c4ccc5c(c4)OCO5)c(-c4ccncc4)n3n2)CC1 stay below 400 nM?
Response line: Satisfied

Prompt line: Does the reported IC50 of the following compound sit strictly below 400 nM? CN1CCN(c2ccc3nc(-c4cccc(-c5cccs5)c4)c(-c4ccncc4)n3n2)CC1
Response line: Satisfied

Prompt line: Regarding COc1cccc(-c2nc3ccc(N4CCN(C)CC4)nn3c2-c2ccncc2)c1 , kindly confirm whether its IC50 is beneath 400 nM.
Response line: Satisfied

Prompt line: Does this compound meet the criterion IC50 < 400 nM? COc1ccc2c(-c3nc4ccc(N5CCN(C)CC5)nn4c3-c3ccncc3)cccc2c1
Response line: Not satisfied

Prompt line: Quick check: IC50 of CN1CCN(c2ccc3nc(-c4cccc5c4OCCO5)c(-c4ccncc4)n3n2)CC1 under 400 nM?
Response line: Not satisfied
